Origin of values: patent US8993585B2

System: Human primary T cells
Test: IL-2 ELISA, Human Primary T Cell, Anti-CD3+CD28+ (Example 3)
Assay type: cell-based
Condition notes: Homo sapiens, T-cell, 24 h, anti-CD3+CD28 stimulation
Readout: IC50 (nM)

[
  {
    "Compound": "CN1C(C)(C)CC(Nc2nc(Nc3cc4c(cc3Cl)OCO4)ncc2F)CC1(C)C",
    "Units text": "nM",
    "IC50": 1840
  },
  {
    "Compound": "COc1cc(Nc2ncc(Cl)c(NC3CC(C)(C)N(C)C(C)(C)C3)n2)cc(OC)c1",
    "Units text": "nM",
    "IC50": 159
  },
  {
    "Compound": "COc1ccc(-c2csc(Nc3ncc(F)c(NC4CC(C)(C)N(C)C(C)(C)C4)n3)n2)cc1OC",
    "Units text": "nM",
    "IC50": 710
  },
  {
    "Compound": "CN1C(C)(C)CC(Nc2nc(Nc3ccc(-c4ccoc4)cc3)ncc2F)CC1(C)C",
    "Units text": "nM",
    "IC50": 892
  },
  {
    "Compound": "CCCN1C(=O)COc2cc(Nc3ncc(C#N)c(NC4CC(C)(C)N(C)C(C)(C)C4)n3)ccc21",
    "Units text": "nM",
    "IC50": 168
  },
  {
    "Compound": "CN1C(C)(C)CC(Nc2nc(Nc3ccc4c(c3)OC(C)(C)C(=O)N4CCF)ncc2C#N)CC1(C)C",
    "Units text": "nM",
    "IC50": 152
  },
  {
    "Compound": "CN1C(C)(C)CC(Nc2nc(Nc3ccc(-n4cccc4)c(C#N)c3)ncc2F)CC1(C)C",
    "Units text": "nM",
    "IC50": 223
  },
  {
    "Compound": "CN1C(C)(C)CC(Nc2nc(Nc3cc(C(F)(F)F)cc(C(F)(F)F)c3)ncc2F)CC1(C)C",
    "Units text": "nM",
    "IC50": 252
  },
  {
    "Compound": "COc1cccc2sc(Nc3ncc(F)c(NC4CC(C)(C)N(C)C(C)(C)C4)n3)nc12",
    "Units text": "nM",
    "IC50": 2100
  },
  {
    "Compound": "CN1C(C)(C)CC(Nc2nc(Nc3nnc(C(F)(F)F)s3)ncc2F)CC1(C)C",
    "Units text": "nM",
    "IC50": 11200
  }
]

A = CN1C(C)(C)CC(Nc2nc(Nc3ccc(-c4ccncc4)c(C#N)c3)ncc2F)CC1(C)C
B = CC1(C)CC(Nc2nc(Nc3ccc4c(c3)oc(=O)n4CCN3CCOCC3)ncc2F)CC(C)(C)N1
C = CN1C(C)(C)CC(Nc2nc(Nc3ccc(N4CCN(S(C)(=O)=O)CC4)c(C#N)c3)ncc2Cl)CC1(C)C
D = CN1C(C)(C)CC(Nc2nc(Nc3ccc(F)c(Br)c3)ncc2F)CC1(C)C
E = CN1C(C)(C)CC(Nc2nc(Nc3nc(-c4ccc(NS(=O)(=O)c5ccc(Cl)cc5)cc4)cs3)ncc2F)CC1(C)C
Order field: IC50 | Direction: descending (largest first) Give me the labels in the order the question wants.
B, E, D, A, C

A = CN1C(C)(C)CC(Nc2nc(Nc3ccc(N4CCN(S(C)(=O)=O)CC4)c(C(F)(F)F)c3)ncc2C#N)CC1(C)C
B = C#Cc1cnc(Nc2ccc3c(c2)OCCO3)nc1NC1CC(C)(C)N(C)C(C)(C)C1
C = CN1C(=O)C(F)(F)Oc2cc(Nc3ncc(F)c(NC4CC(C)(C)N(C)C(C)(C)C4)n3)ccc21
D = CCN1C(=O)COc2cc(Nc3ncc(C#N)c(NC4CC(C)(C)N(C)C(C)(C)C4)n3)ccc21
Give the ascending ranking of the items by reported IC50. Note for the reader: the ranking is given by listing the labels in the order requested.
C, D, A, B
(C: 90 nM, D: 145 nM, A: 347 nM, B: 5930 nM)

A = COC(=O)CCN1C(C)(C)CC(Nc2nc(Nc3cc(Cl)cc(Cl)c3)ncc2F)CC1(C)C
B = CN1CCN(c2ccc(Nc3ncc(C#N)c(NC4CC(C)(C)N(C)C(C)(C)C4)n3)cc2Cl)CC1
Of A and B , whose reported IC50 is numerically smaller? Respond using the label that marks the chosen record.
B
